Assignment: determine reported melting point for the given compounds.

Use the examples below as a reference point.
compound: C[C@@H]1OCC(=O)C2=C1NC1=C(C(=O)OC1)[C@H]2c1ccc(F)c(Br)c1 (relative stereo)
melting point: 260 to 263 °C

compound: C[C@H]1OCC2=C(C1=O)[C@H](c1ccc(F)c(Br)c1)C1=C(COC1=O)N2 (relative stereo)
melting point: 234 to 239 °C

compound: CCCC1OC(=O)C2=C1NC1=C(C(=O)COC1)C2c1ccc(F)c(Br)c1 (single isomer, unassigned) [Example 98]
melting point: 219 to 220 °C

compound: CN1CC(=O)C2=C(C1)NC1=C(C(=O)CCC1)C2c1ccc(F)c(Br)c1.Cl (stereo not drawn)
melting point: 248 to 250 °C

compound: CCCC1OC(=O)C2=C1NC1=C(C(=O)COC1)C2c1ccc(F)c(Br)c1 (single isomer, unassigned) [Example 97]
melting point: 206 to 208 °C

compound: CC1(C)CCC2=C(C1=O)C(c1ccc(F)c(Br)c1)C1=C(COCC1=O)N2 (stereo not drawn)
melting point: > 260 °C

compound: CC1(C)OC(=O)C2=C1NC1=C(C(=O)COC1)C2c1ccc(F)c(Br)c1 (stereo not drawn)
melting point: > 260 °C

compound: CCC1OC(=O)C2=C1NC1=C(C(=O)COC1)C2c1ccc(F)c(Br)c1 (single isomer, unassigned) [Example 96]
melting point: 246 to 248 °C

Batch of 3 compounds: report melting point for each.
1. CCC1OC(=O)C2=C1NC1=C(C(=O)COC1)C2c1ccc(F)c(Br)c1 (single isomer, unassigned) [Example 95]
2. C[C@@H]1OC(=O)C2=C1NC1=C(C(=O)COC1)[C@H]2c1ccc(F)c(Br)c1 (relative stereo) [Example 100]
3. C[C@@H]1OC(=O)C2=C1NC1=C(C(=O)COC1)[C@H]2c1ccc(F)c(Br)c1 (relative stereo) [Example 91]

Reply:
1: 161 to 162 °C; 2: 230 to 233 °C; 3: 213 to 216 °C

Ask: Could you please provide reported melting point for O=C1COCC2=C1C(c1ccc(F)c(Br)c1)C1=C(CNC1=O)N2 (stereo not drawn) ? Thanks!
Reply: > 260 °C

---

Test system: Guinea-Pig Bladder (GPB) Cells
Test: Membrane Hyperpolarization (MHP) assay, DiBAC(4)3 / FLIPR
Conditions: membrane hyperpolarization, GPB cells
Assignment: determine reported log10 EC50 for the given compounds.
Form field - Quantity: EC50; Unit: nM; Scale: log10

Use the examples below as a reference point.
compound: O=C1COCC2=C1C(c1ccc(Cl)c([N+](=O)[O-])c1)C1=C(CCS1(=O)=O)N2 (single isomer, unassigned; (+)) [Example 18]
log10 EC50: 1.76

compound: Cc1ccc(C2C3=C(COCC3=O)NC3=C2C(=O)COC3)cc1[N+](=O)[O-]
log10 EC50: 2.00

compound: Cl.O=C1CNCC2=C1C(c1ccc(F)c(Br)c1)C1=C(CCS1(=O)=O)N2 (stereo not shown) [Example 10, hydrochloride]
log10 EC50: 3.15

Batch of 4 compounds: report log10 EC50 for each.
1. O=C1COCC2=C1C(c1ccc(F)c(Br)c1)C1=C(CCS1(=O)=O)N2 (single isomer, unassigned; (+)) [Example 12]
2. C=C(C)c1cc(C2C3=C(COCC3=O)NC3=C2C(=O)COC3)ccc1F
3. O=C1COCC2=C1C(c1ccc(F)c(-c3ccco3)c1)C1=C(COCC1=O)N2
4. O=C1COCC2=C1C(c1ccc(Cl)c([N+](=O)[O-])c1)C1=C(CCS1(=O)=O)N2 (stereo not shown) [Example 17]

Reply:
1. 1.15
2. 2.40
3. 3.60
4. 0.62

---

Assignment: determine reported EC50 for the given molecules.
Tested on: Guinea-Pig Bladder (GPB) Cells
Experiment: Membrane Hyperpolarization (MHP) assay, DiBAC(4)3 / FLIPR
Conditions: membrane hyperpolarization, GPB cells
One number for each entry, in nM.

Use the examples below as a reference point.
molecule: O=C1COCC2=C1C(c1ccc(Cl)c(Cl)c1)C1=C(COCC1=O)N2 [Example 33]
assayed_target: Guinea-Pig Bladder (GPB) Cells
measured_attribute: EC50
measured: 3.4
--
molecule: Cc1ccc(C2C3=C(COCC3=O)NC3=C2C(=O)COC3)cc1Br [Example 53]
assayed_target: Guinea-Pig Bladder (GPB) Cells
measured_attribute: EC50
measured: 19
--
molecule: O=C1COCC2=C1C(c1ccc(F)c(I)c1)C1=C(COCC1=O)N2 [Example 30]
assayed_target: Guinea-Pig Bladder (GPB) Cells
measured_attribute: EC50
measured: 5

Batch of 7 molecules: report EC50 for each.
1. N#Cc1cccc(C2C3=C(COCC3=O)NC3=C2S(=O)(=O)CC3)c1 (single isomer, unassigned; (-)) [Example 16]
2. O=C1COCC2=C1C(c1ccc(F)c(C(F)(F)F)c1)C1=C(COCC1=O)N2 [Example 32]
3. O=C1COCC2=C1C(c1csc([N+](=O)[O-])c1)C1=C(COCC1=O)N2 [Example 36]
4. O=C1COCC2=C1C(c1ccc([N+](=O)[O-])s1)C1=C(COCC1=O)N2 [Example 35]
5. O=C1COCC2=C1C(c1ccc(F)c(Br)c1)C1=C(CCS1(=O)=O)N2 (single isomer, unassigned; (-)) [Example 13]
6. O=C1COCC2=C1C(c1cc(Br)ccc1O)C1=C(COCC1=O)N2 [Example 31]
7. O=C1COCC2=C1C(c1ccc3nonc3c1)C1=C(COCC1=O)N2 [Example 34]

Reply:
1: 8800; 2: 15; 3: 82; 4: 25; 5: 240; 6: 1300; 7: 91

Batch of 5 molecules: report EC50 for each.
1. O=C1COCC2=C1C(c1ccc(Cl)c(Br)c1)C1=C(COCC1=O)N2 [Example 61]
2. N#Cc1cccc(C2C3=C(COCC3=O)NC3=C2S(=O)(=O)CC3)c1 (single isomer, unassigned; (+)) [Example 15]
3. O=C1COCC2=C1C(c1ccc(F)c(Br)c1)C1=C(CCS1(=O)=O)N2 (stereo not drawn) [Example 11]
4. N#Cc1cccc(C2C3=C(COCC3=O)NC3=C2C(=O)COC3)c1 [Example 29]
5. N#Cc1cccc(C2C3=C(COCC3=O)NC3=C2S(=O)(=O)CC3)c1 (stereo not drawn) [Example 14]

Reply:
1. 6.3
2. 640
3. 23
4. 1100
5. 400

Batch of 3 molecules: report EC50 for each.
1. O=C1COCC2=C1C(c1ccc(Cl)c([N+](=O)[O-])c1)C1=C(COCC1=O)N2 [Example 28]
2. O=C1COCC2=C1C(c1ccc(F)c(Br)c1)C1=C(CCCS1(=O)=O)N2 (stereo not drawn) [Example 21]
3. Cc1ccc(C2C3=C(COCC3=O)NC3=C2C(=O)COC3)cc1I [Example 54]

Reply:
1. 64
2. 66
3. 9.5

---

Test system: Guinea-Pig Bladder (GPB) Cells
Assay: Membrane Hyperpolarization (MHP) assay, DiBAC(4)3 / FLIPR
Conditions: maximal steady-state hyperpolarization, normalized to 10 μM P1075 (100%)
Assignment: determine reported Maximal Response (% P1075) for the given molecules.
Numbers only, in % P1075.

Use the examples below as a reference point.
molecule: O=C1COCC2=C1C(c1ccc(F)c(Br)c1)C1=C(CCCS1(=O)=O)N2 (stereo not shown)
measured_attribute: Maximal Response (% P1075)
measured: 79
//
molecule: O=C1COCC2=C1C(c1csc([N+](=O)[O-])c1)C1=C(COCC1=O)N2
measured_attribute: Maximal Response (% P1075)
measured: 98
//
molecule: O=C1COCC2=C1C(c1ccc(Cl)c([N+](=O)[O-])c1)C1=C(CCS1(=O)=O)N2 (single isomer, unassigned; (-)) [Example 19]
measured_attribute: Maximal Response (% P1075)
measured: 94

Let's switch to this molecule now.
Ask: Could you please provide reported Maximal Response (% P1075) for O=C1COCC2=C1C(c1ccc(F)c(I)c1)C1=C(COCC1=O)N2 ? Thanks!
Reply: 81

---

Tested on: Landrace Pig Bladder
Experiment: Functional potassium channel opening activity in isolated bladder strips (field-stimulated twitch)
Settings: Sus scrofa, negative logarithm of ED50; read-out: pD2 (converted)
Assignment: determine reported EC50 for the given compounds.
One number for each entry, in nM.

Use the examples below as a reference point.
compound: O=C1COCC2=C1[C@@H](c1ccc(F)c(I)c1)C1=C(COC1=O)N2 (single isomer, unassigned)
measured: 158

compound: N#Cc1cccc(C2C3=C(COCC3=O)NC3=C2S(=O)(=O)CC3)c1 (single isomer, unassigned; (+))
measured: 2000

compound: O=C1CCCC2=C1C(c1ccc(F)c(Br)c1)C1=C(COCC1=O)N2 (stereo not shown)
measured: 2510

compound: O=C1COCC2=C1C(c1ccc(F)c(Br)c1)C1=C(CCNC1=O)N2 (stereo not shown)
measured: 5010

compound: O=C1COCC2=C1C(c1ccc(F)c(Br)c1)C1=C(CSCC1=O)N2 (stereo not shown)
measured: 2510

Batch of 8 compounds: report EC50 for each.
1. O=C1CCCC2=C1C(c1ccc(F)c(Br)c1)C1=C(CSCC1=O)N2 (stereo not shown)
2. O=C1COCC2=C1[C@H](c1ccc(F)c(I)c1)C1=C(COC1=O)N2 (single isomer, unassigned)
3. Cl.O=C1CCC2=C1C(c1ccc(F)c(Cl)c1)C1=C(CNCC1=O)N2 (stereo not shown) [Example 38, Hydrochloride]
4. Cl.O=C1CNCC2=C1C(c1ccc(F)c(Br)c1)C1=C(CCCS1(=O)=O)N2 (stereo not shown) [Example 9, Hydrochloride]
5. O=C1COCC2=C1[C@@H](c1ccc(F)c(Br)c1)C1=C(COC1=O)N2 (single isomer, unassigned)
6. Cl.O=C1CNCC2=C1C(c1ccc(F)c(Br)c1)C1=C(COCC1=O)N2 (stereo not shown) [Example 24, Hydrochloride]
7. O=C1COCC2=C1[C@H](c1ccc(F)c(Br)c1)C1=C(COC1=O)N2 (single isomer, unassigned)
8. O=C1COCC2=C1C(c1ccc(F)c(I)c1)C1=C(CCS1(=O)=O)N2 (stereo not shown)

Reply:
1. 631
2. 79.4
3. 5010
4. 126000
5. 631
6. 1000
7. 200
8. 50.1
